assay: Oral bioavailability in rat; type: ADME, organism-based; details: in vivo
readout kind: bioavailability (%)
Supply the numeric figure in %, leaving out any unit text.

stdin: So what does the record say about bioavailability for Cn1cc(C[C@@H](N)C(=O)O)c2ccccc21 [INDOXIMOD] ?
stdout: 50

* * *

experiment: Lipophilicity, logP of the compound; type: physicochemical; conditions: octanol/water
readout kind: logP
Enter the number alone.

stdin: Can you look up the measured logP of `CCOC(=O)[C@@H](Cc1cn(C)c2ccccc12)NC(=O)[C@@H](N)CC(C)C.Cl` for me?
stdout: 2.6

* * *

Let's look at some compounds and their measured Activity.
experiment: Change in normalised Cmax in rat at 50 mg/kg, po measured upto 72 hrs by LC-MS/MS analysis; type: ADME, organism-based; details: in vivo

[
  {
    "compound structure string": "CCOC(=O)[C@H](N)Cc1cn(C)c2ccccc12.Cl",
    "result": "143%"
  },
  {
    "compound structure string": "Cn1cc(C[C@@H](N)C(=O)O)c2ccccc21",
    "result": "0%"
  },
  {
    "compound structure string": "Cn1cc(C[C@@H](NC(=O)OCC(C)(C)C)C(=O)O)c2ccccc21",
    "result": "-99%"
  },
  {
    "compound structure string": "Cl.Cn1cc(C[C@@H](N)C(=O)OCc2ccccc2)c2ccccc21",
    "result": "4%"
  },
  {
    "compound structure string": "CCOC(=O)N[C@H](Cc1cn(C)c2ccccc12)C(=O)O",
    "result": "-78%"
  }
]

Please find the next compound below.
stdin: Dear colleague, I am looking for the recorded Activity of the following compound: `CC(C)OC(=O)[C@H](N)Cc1cn(C)c2ccccc12.Cl`
stdout: 4%

* * *

test: AUC (0 to 12 hrs) in human up to 1200 mg administered bid; type: ADME; set-up: time < 12 hr, dose <=1200
readout kind: AUC at 12 h
I'd appreciate it if you included the unit after the number.

stdin: # get_value(readout='AUC at 12 h', item= `Cn1cc(C[C@@H](N)C(=O)O)c2ccccc21` )
stdout: 83 µM·h

* * *

assay: Change in normalised AUCinfinity in rat at 10 mg/kg, po measured upto 72 hrs by LC-MS/MS analysis; format: ADME, organism-based; details: in vivo
So basically: Activity at -30% or higher? That is condition met. Lower than -30%? That is condition not met.

Past entries and their recorded results:
[
  {
    "compound": "CC(C)C(NC(=O)[C@H](N)Cc1cn(C)c2ccccc12)C(=O)O.Cl (single isomer, unassigned)",
    "assigned label": "condition not met"
  },
  {
    "compound": "CC(C)[C@H](N)C(=O)N[C@H](Cc1cn(C)c2ccccc12)C(=O)O.Cl",
    "assigned label": "condition not met"
  },
  {
    "compound": "Cl.Cn1cc(C[C@@H](N)C(=O)OCCC2CCOCC2)c2ccccc21",
    "assigned label": "condition met"
  }
]

// next entry
stdin: Is reported Activity greater than or equal to -30% here: `CCOC(=O)[C@@H](Cc1cn(C)c2ccccc12)NC(=O)[C@@H](N)CC(C)C.Cl`
stdout: condition met

* * *

experiment: Apparent oral clearance in male cynomolgus monkey at 75 mg/kg, po measured on day 1; format: ADME, organism-based, Macaca fascicularis; settings: in vivo
readout kind: CL/F (mL/min/kg)
Answer with a number only, understood to be in mL/min/kg.

stdin: Any idea what its CL/F is? The compound is `Cn1cc(C[C@@H](N)C(=O)O)c2ccccc21`
stdout: 16.2

* * *

assay: Chemical stability of compound in simulated intestinal fluid assessed as compound remaining at 5 uM measured after 24 hrs by LC-MS/MS analysis; type: ADME, physicochemical; conditions: read-out: Stabilty
Where a SMILES comes first, the peptide text is derived from it. [ ]: non-standard residue; d: D form. dTrp(1-Me) = Cn1cc(C[C@@H](N)C(=O)O)c2ccccc21
readout kind: remaining at 24 h, 5 µM (%)
Report only the number, with the unit % understood.

See these solved cases before continuing.
[
  {
    "molecule": "Cl.Cn1cc(C[C@@H](NC(=O)[C@@H](N)CCCCN)C(=O)O)c2ccccc21",
    "readout kind": "remaining at 24 h, 5 µM",
    "readout number": 96
  },
  {
    "molecule": "Cl.Cn1cc(C[C@@H](NC(=O)CN)C(=O)O)c2ccccc21 (H-Gly-[dTrp(1-Me)]-OH)",
    "readout kind": "remaining at 24 h, 5 µM",
    "readout number": 38
  },
  {
    "molecule": "CCOC(=O)[C@H](N)Cc1cn(C)c2ccccc12.Cl",
    "readout kind": "remaining at 24 h, 5 µM",
    "readout number": 0
  },
  {
    "molecule": "CCOC(=O)[C@@H](Cc1cn(C)c2ccccc12)NC(=O)[C@@H](N)Cc1ccccc1.Cl",
    "readout kind": "remaining at 24 h, 5 µM",
    "readout number": 0
  }
]

Now for the molecule whose remaining at 24 h, 5 µM we want.
stdin: // returns reported remaining at 24 h, 5 µM for input Cl.Cn1cc(C[C@@H](N)C(=O)OCC(N)C(=O)O)c2ccccc21 (single isomer, unassigned)
stdout: 0

* * *

# AUC(0-t) at 24 h values compiled below
test: AUC (0 to 24 hrs) in female cynomolgus monkey at 75 mg/kg, po measured on day 1; type: ADME, organism-based, Macaca fascicularis; design: time < 24 hr, route oral, dose 75 mg/kg; conditions: in vivo
Write the quantity with the unit trailing the number.

[
  {
    "compound structure string": "Cn1cc(C[C@@H](N)C(=O)O)c2ccccc21",
    "AUC(0-t) at 24 h": "177 µM·h"
  }
]

With those in mind, consider the next molecule.
stdin: Item `CCOC(=O)[C@@H](Cc1cn(C)c2ccccc12)NC(=O)[C@@H](N)CC(C)C.Cl` has what recorded AUC(0-t) at 24 h?
stdout: 0.0287 µM·h

* * *

test: Tmax in female cynomolgus monkey at 150 mg/kg, po BID measured on day 8; type: ADME, organism-based, Macaca fascicularis; conditions: in vivo
readout kind: Tmax (h)
Answer with a number only, understood to be in h.

stdin: Data request, read-out Tmax, for `CCOC(=O)[C@@H](Cc1cn(C)c2ccccc12)NC(=O)[C@@H](N)CC(C)C.Cl`
stdout: 1

* * *

experiment: Chemical stability of compound in simulated gastric fluid assessed as compound remaining at 5 uM measured after 1.5 hrs by LC-MS/MS analysis; assay type: ADME, physicochemical; conditions: read-out: Stabilty
# remaining at 1.5 h, 5 µM binned as low class = under 60%, middle class = from 60% up to 80%, high class = 80% and over

[
  {
    "molecule": "Cl.Cn1cc(C[C@@H](N)C(=O)OCCC2CCOCC2)c2ccccc21",
    "assigned label": "high class"
  },
  {
    "molecule": "Cl.Cn1cc(C[C@@H](N)C(=O)N[C@H](Cc2cn(C)c3ccccc23)C(=O)O)c2ccccc21",
    "assigned label": "middle class"
  },
  {
    "molecule": "Cl.Cn1cc(C[C@@H](N)C(=O)OCCC2CCNCC2)c2ccccc21",
    "assigned label": "high class"
  },
  {
    "molecule": "Cl.Cn1cc(C[C@@H](N)C(=O)OCC(O)CO)c2ccccc21 (stereo not given in full)",
    "assigned label": "middle class"
  },
  {
    "molecule": "CCOC(=O)[C@@H](Cc1cn(C)c2ccccc12)NC(=O)[C@@H](N)Cc1ccccc1.Cl",
    "assigned label": "high class"
  }
]

stdin: For the record `CC(C)C[C@H](N)C(=O)N[C@H](Cc1cn(C)c2ccccc12)C(=O)O.Cl` , report the class its remaining at 1.5 h, 5 µM corresponds to.
stdout: high class

stdin: // return the class label for `Cl.Cn1cc(C[C@@H](NC(=O)[C@@H](N)CCC(N)=O)C(=O)O)c2ccccc21`
stdout: high class

stdin: The entry to classify is `CCOC(=O)[C@H](N)Cc1cn(C)c2ccccc12.Cl` ; which class holds it?
stdout: high class

stdin: Textbook exercise: identify the category of the molecule given here, `CC(C)[C@H](N)C(=O)N[C@H](Cc1cn(C)c2ccccc12)C(=O)O.Cl` , according to its measured value.
stdout: low class

stdin: Note: place this molecule into its band. Item: `Cl.Cn1cc(C[C@@H](NC(=O)[C@H](N)Cc2c[nH]c3ccccc23)C(=O)O)c2ccccc21`
stdout: low class

stdin: Any idea which band `C[C@H](N)C(=O)N[C@H](Cc1cn(C)c2ccccc12)C(=O)O.Cl` is in?
stdout: low class

stdin: Class (by measured remaining at 1.5 h, 5 µM) for `CCOC(=O)[C@@H](Cc1cn(C)c2ccccc12)NC(=O)[C@@H](N)[C@@H](C)CC.Cl`
stdout: high class
